The origin of these recorded values is patent US20160362487A1.

- ASSAY_SYSTEM: T1, human IL-33 (R&D Systems, #3625-IL-010/CF) (human, UniProt O95760 112-270)
- T1 construct: Commercial recombinant protein; also called hIL-33; interleukin-33
- T1 sequence (looked up): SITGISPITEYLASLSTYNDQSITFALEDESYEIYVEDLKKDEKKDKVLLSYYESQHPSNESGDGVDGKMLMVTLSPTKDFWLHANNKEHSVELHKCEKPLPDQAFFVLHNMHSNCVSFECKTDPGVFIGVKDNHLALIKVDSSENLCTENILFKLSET
- ASSAY_METHOD_TEXT: SPR 37C pH7.4, mAb captured
pKd: −log10 of the molar value.
Entries and their pKd
MEASURED_ATTRIBUTE: pKd

[
  {
    "BINDER": "H4H9667P (antibody, human IgG4, V domains shown, Human IgG4 Fc (H4H)) VH: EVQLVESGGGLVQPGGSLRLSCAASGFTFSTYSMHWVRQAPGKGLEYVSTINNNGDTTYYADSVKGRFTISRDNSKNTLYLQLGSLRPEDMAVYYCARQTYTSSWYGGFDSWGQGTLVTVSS VL: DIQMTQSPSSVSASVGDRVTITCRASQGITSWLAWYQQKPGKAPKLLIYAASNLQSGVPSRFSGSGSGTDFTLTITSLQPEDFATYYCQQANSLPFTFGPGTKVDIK",
    "MEASURED_ATTRIBUTE": "pKd",
    "MEASURED_RESULT": 9.21
  },
  {
    "BINDER": "H4H9670P (antibody, V domains shown, Human IgG4 Fc (H4H)) VH: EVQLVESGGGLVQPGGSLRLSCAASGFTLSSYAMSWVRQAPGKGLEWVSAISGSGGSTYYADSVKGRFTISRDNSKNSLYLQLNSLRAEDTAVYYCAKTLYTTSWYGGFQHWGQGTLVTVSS VL: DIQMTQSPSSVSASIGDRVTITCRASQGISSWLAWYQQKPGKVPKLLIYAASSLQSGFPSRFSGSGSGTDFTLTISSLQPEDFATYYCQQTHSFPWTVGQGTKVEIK",
    "MEASURED_ATTRIBUTE": "pKd",
    "MEASURED_RESULT": 9.17
  },
  {
    "BINDER": "H4H9665P (antibody, human IgG4, V domains shown, Human IgG4 Fc (H4H)) VH: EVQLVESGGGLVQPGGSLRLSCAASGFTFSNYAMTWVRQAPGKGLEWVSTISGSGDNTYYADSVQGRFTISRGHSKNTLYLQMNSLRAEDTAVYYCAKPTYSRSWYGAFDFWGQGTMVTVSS VL: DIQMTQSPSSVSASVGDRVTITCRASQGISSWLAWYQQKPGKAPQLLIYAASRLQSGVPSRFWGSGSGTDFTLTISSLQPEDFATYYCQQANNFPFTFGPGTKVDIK",
    "MEASURED_ATTRIBUTE": "pKd",
    "MEASURED_RESULT": 8.92
  },
  {
    "BINDER": "H1M9566N (antibody, mouse IgG1, V domains shown, Human variable domains, mouse IgG1 Fc (H1M)) VH: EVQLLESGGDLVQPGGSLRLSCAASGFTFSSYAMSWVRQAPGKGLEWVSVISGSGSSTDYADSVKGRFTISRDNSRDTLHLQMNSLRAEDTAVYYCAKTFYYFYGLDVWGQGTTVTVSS VL: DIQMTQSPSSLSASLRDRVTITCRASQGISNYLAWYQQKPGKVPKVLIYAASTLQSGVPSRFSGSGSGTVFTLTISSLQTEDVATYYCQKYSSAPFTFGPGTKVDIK",
    "MEASURED_ATTRIBUTE": "pKd",
    "MEASURED_RESULT": 8.77
  }
]
